Biological target: recombinant human ALX receptor (HEK293-hALXR-Gα16 cells) (Homo sapiens (Human), UniProt P25090)
Sequence (P25090 whole entry): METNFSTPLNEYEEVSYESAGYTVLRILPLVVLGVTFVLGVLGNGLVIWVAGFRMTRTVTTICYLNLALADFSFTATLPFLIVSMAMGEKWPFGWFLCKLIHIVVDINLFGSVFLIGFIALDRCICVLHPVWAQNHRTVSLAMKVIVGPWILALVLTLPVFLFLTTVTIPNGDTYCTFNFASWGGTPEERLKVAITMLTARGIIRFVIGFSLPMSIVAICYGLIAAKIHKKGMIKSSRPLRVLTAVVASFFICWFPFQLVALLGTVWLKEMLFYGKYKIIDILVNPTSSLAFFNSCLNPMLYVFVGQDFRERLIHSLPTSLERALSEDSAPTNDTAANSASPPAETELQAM
Test: Intracellular calcium measurements (FLIPR), ALX receptor agonistic activity
Details: normalized to 10 nM WKYMVm, read-out: EC50 (agonistic activity with respect to the ALX receptor)
REPORTED METRIC: pEC50
Would you please state pEC50, meaning minus log10 of the concentration in mol/L, as a bare number?

Recorded results for 6 compounds are shown here.
{"columns": ["COMPOUND", "REPORTED METRIC", "ENDPOINT VALUE"],
 "data": [
  ["CC(C)(O)c1coc(Cn2ncc(NC(=O)c3ncsc3-c3cccc(F)c3)n2)n1 [Example 11]", "pEC50", 7.08],
  ["Cc1cccc(-c2oc(C3CC3)nc2C(=O)Nc2cnn(Cc3nc(C(C)(C)O)co3)n2)c1 [Example 15]", "pEC50", 7.28],
  ["Cc1nc(C(=O)Nc2cnn(Cc3nc(C(C)(C)O)co3)n2)c(-c2cccc(C(F)(F)F)c2)o1 [Example 5]", "pEC50", 7.66],
  ["Cc1nc(C(=O)Nc2cnn(Cc3nc(C(C)(C)O)co3)n2)c(-c2cccc(Cl)c2)o1 [Example 7]", "pEC50", 8.00],
  ["CC(C)(O)c1coc(Cn2ncc(NC(=O)c3ncoc3-c3ccc(F)cc3)n2)n1 [Example 4]", "pEC50", 7.29],
  ["CC(C)(O)c1coc(Cn2ncc(NC(=O)c3ncoc3-c3cccc(Cl)c3)n2)n1 [Example 8]", "pEC50", 7.75]
]}

Prompt: Quote pEC50 reported for COc1cccc(-c2ocnc2C(=O)Nc2cnn(Cc3nc(C(C)(C)O)co3)n2)c1 [Example 9] please.
Response: 7.76

Prompt: Please look at this compound and report its pEC50: CC(C)(O)c1coc(Cn2ncc(NC(=O)c3ncoc3-c3ccccc3)n2)n1 [Example 3]
Response: 8.10

---

Molecular target: recombinant human ALX receptor (HEK293-hALXR-Gα16 cells) (Homo sapiens (Human), UniProt P25090)
Assay: Intracellular calcium measurements (FLIPR), ALX receptor agonistic activity
Conditions: normalized to 10 nM WKYMVm, read-out: EC50 (agonistic activity with respect to the ALX receptor)
REPORTED METRIC: EC50 (nM)
Your answer should be a plain number; it is taken to be in nM.

Here is how some compounds turned out for EC50.
{"columns": ["COMPOUND", "EC50 [nM]"],
 "data": [
  ["Cc1nc(C(=O)Nc2cnn(Cc3nc(C(C)(C)O)co3)n2)c(-c2ccccc2)o1", 10.3],
  ["Cc1cccc(-c2oc(C)nc2C(=O)Nc2cnn(Cc3nc(C4(O)CC4)co3)n2)c1", 7.6]
]}

Prompt: Return EC50 (reported value) for this compound: COc1cccc(-c2oc(C)nc2C(=O)Nc2cnn(Cc3nc(C(C)(C)O)co3)n2)c1
Response: 12.7

Prompt: Supply reported EC50 belonging to this compound: Cc1nc(C(=O)Nc2cnn(Cc3nc(C(C)(C)O)co3)n2)c(-c2cccc(OC(F)(F)F)c2)o1
Response: 32.3

---

Biological target: recombinant human ALX receptor (HEK293-hALXR-Gα16 cells) (Homo sapiens (Human), UniProt P25090)
Experiment: Intracellular calcium measurements (FLIPR), ALX receptor agonistic activity
Settings: normalized to 10 nM WKYMVm, read-out: EC50 (agonistic activity with respect to the ALX receptor)
Known pEC50 of a selection of compounds
Note on units: pEC50 is unitless, being -log10 of a concentration expressed in mol/L.

Some compounds with known pEC50 results, for comparison:
{"columns": ["COMPOUND", "pEC50"],
 "data": [
  ["Cc1nc(C(=O)Nc2cnn(Cc3nc(C(C)(C)O)co3)n2)c(-c2cccc(F)c2)o1 [Example 13]", 7.88],
  ["Cc1cccc(-c2oc(C)nc2C(=O)Nc2cnn(Cc3nc(C(C)(C)O)co3)n2)c1 [Example 1]", 7.93]
]}

Prompt: Determine from records and report pEC50 for Cc1cccc(-c2oc(C)nc2C(=O)Nc2cnn(Cc3nc(C(C)(C)O)cs3)n2)c1 [reference compound]
Response: 6.61

Prompt: For Cc1cccc(-c2ocnc2C(=O)Nc2cnn(Cc3nc(C(C)(C)O)co3)n2)c1 [Example 14] , write its pEC50.
Response: 7.95

The measured values listed here are drawn from patent US9346793B2.
